Ref: patent US6358967B1

Test system: normotensive Wistar rats after pretreatment with Ecolid
assay name: Blood pressure testing after blockade of autonomic nerve tracts with Ecolid
Assay type: in vivo, rat
reported conditions: assessment class of pressure fall, after Ecolid, 0.5 mg/kg i.v., Table 2
parameter: Effect pressure/duration: pressure

compound: CN1CC(CNC(=O)c2ccc(C(=O)NCc3cccc(CN)c3)cc2)CC2c3cccc4[nH]cc(c34)CC21.O=C(O)C(F)(F)F.O=C(O)C(F)(F)F (stereo not shown) [Substance 9703126]
reading: ↓↓↓/↓↓↓ (> 30%)

compound: CN1CC(CNC(=O)C2CCC(C(=O)NCc3cccc(CN)c3)CC2)CC2c3cccc4[nH]cc(c34)CC21.O=C(O)C(F)(F)F.O=C(O)C(F)(F)F (mixture of isomers) [Substance 9703131]
reading: ↓↓↓/↓↓↓ (> 30%)

compound: C[N+](C)(C)CC[N+]1(C)Cc2c(Cl)c(Cl)c(Cl)c(Cl)c2C1.[Cl-].[Cl-] [Ecolid, reference compound]
reading: ↓↓↓/↓↓↓ (> 30%)

---

Test system: normotensive Wistar rats
assay name: Invasive blood pressure measurement in anesthetized rats, i.v. administration
Assay type: in vivo, rat
reported conditions: change shown as arrow, Wistar rats, 0.5 mg/kg i.v., Table 1.1

compound: CN1CC(CNC(=O)c2ccc(C(=O)NCc3cccc(CN)c3)cc2)CC2c3cccc4[nH]cc(c34)CC21.O=C(O)C(F)(F)F.O=C(O)C(F)(F)F (stereo not drawn)
Heart rate: →
//
compound: CN1C[C@H](CN)C[C@@H]2c3cccc4[nH]cc(c34)C[C@H]21 [8β-Aminomethyl-6-methylergoline, reference compound]
Heart rate: →
//
compound: CN1C[C@H](CN2CCC(=O)NC2=O)C[C@@H]2c3cccc4[nH]cc(c34)C[C@H]21 [reference compound]
Heart rate: →

---

Test system: normotensive Wistar rats
assay name: Invasive blood pressure measurement in anesthetized rats, i.v. administration
Assay type: in vivo, rat
reported conditions: rat, in vivo, iv, 0.5 mg/kg

molecule: CN1CC(CNC(=O)CCCCC(=O)NCc2cccc(CN)c2)CC2c3cccc4[nH]cc(c34)CC21.O=C(O)C(F)(F)F.O=C(O)C(F)(F)F (stereo not shown) [Substance 9703123]
Heart rate: →
--
molecule: CN1CC(CNC(=O)CCCCC(=O)NC2CCC(N)CC2)CC2c3cccc4[nH]cc(c34)CC21.O=C(O)C(F)(F)F.O=C(O)C(F)(F)F (stereo not shown) [Substance 9703114]
Heart rate: →
--
molecule: CN1CC(CNC(=O)C2CCC(C(=O)NCCCN3CCN(CCCN)CC3)CC2)CC2c3cccc4[nH]cc(c34)CC21.O=C(O)C(F)(F)F.O=C(O)C(F)(F)F.O=C(O)C(F)(F)F.O=C(O)C(F)(F)F (mixture of isomers) [Substance 9703133]
Heart rate: ↑
--
molecule: CN1CC(CNC(=O)c2ccc(C(=O)NCCCN3CCN(CCCN)CC3)cc2)CC2c3cccc4[nH]cc(c34)CC21.O=C(O)C(F)(F)F.O=C(O)C(F)(F)F.O=C(O)C(F)(F)F.O=C(O)C(F)(F)F (stereo not shown) [Substance 9703125]
Heart rate: →

---

Test system: normotensive Wistar rats
assay name: Invasive blood pressure measurement in anesthetized rats, i.v. administration
Assay type: in vivo, rat
reported conditions: rat, in vivo, iv, 0.5 mg/kg
parameter: Systol. pressure (%)

molecule: CN1CC(CNC(=O)CCCCC(=O)NC2CCC(N)CC2)CC2c3cccc4[nH]cc(c34)CC21.O=C(O)C(F)(F)F.O=C(O)C(F)(F)F (stereo not shown)
parameter: Systol. pressure
reading: 18.8
//
molecule: CN1CC(CNC(=O)C2CCC(C(=O)NCCCN3CCN(CCCN)CC3)CC2)CC2c3cccc4[nH]cc(c34)CC21.O=C(O)C(F)(F)F.O=C(O)C(F)(F)F.O=C(O)C(F)(F)F.O=C(O)C(F)(F)F (mixture of isomers)
parameter: Systol. pressure
reading: 48.4
//
molecule: CN1CC(CNC(=O)c2ccc(C(=O)NCCCN3CCN(CCCN)CC3)cc2)CC2c3cccc4[nH]cc(c34)CC21.O=C(O)C(F)(F)F.O=C(O)C(F)(F)F.O=C(O)C(F)(F)F.O=C(O)C(F)(F)F (stereo not shown)
parameter: Systol. pressure
reading: 13.1
//
molecule: CN1CC(CNC(=O)CCCCC(=O)NCc2cccc(CN)c2)CC2c3cccc4[nH]cc(c34)CC21.O=C(O)C(F)(F)F.O=C(O)C(F)(F)F (stereo not shown)
parameter: Systol. pressure
reading: 38.0

---

Tested on: normotensive Wistar rats
assay name: Invasive blood pressure measurement in anesthetized rats, i.v. administration
Format: in vivo, rat
reported conditions: assessment class of duration, 0.5 mg/kg i.v., Table 1.1
parameter: Effect pressure/duration: duration

compound: CN1CC(CNC(=O)C2CCC(C(=O)NCc3cccc(CN)c3)CC2)CC2c3cccc4[nH]cc(c34)CC21.O=C(O)C(F)(F)F.O=C(O)C(F)(F)F (mixture of isomers)
reading: ↓↓↓/↓↓↓ (>30 min)
--
compound: Cc1nc(C)c(C(=O)NC2CCC(N)CC2)cc1C(=O)NCC1CC2c3cccc4[nH]cc(c34)CC2N(C)C1.O=C(O)C(F)(F)F.O=C(O)C(F)(F)F (centres unmarked)
reading: ↓↓↓/↓↓↓ (>30 min)

---

Test system: normotensive Wistar rats after pretreatment with Ecolid
assay name: Blood pressure testing after blockade of autonomic nerve tracts with Ecolid
Assay type: in vivo, rat
reported conditions: effect (fall) on arterial blood pressure, Wistar rats pretreated with Ecolid 0.5 mg/kg i.v., test substance 0.5 mg/kg i.v., Table 2

molecule: CN1C[C@H](CN2CCC(=O)NC2=O)C[C@@H]2c3cccc4[nH]cc(c34)C[C@H]21 [reference compound]
Diastol. pressure [%]: 0
//
molecule: CN1CC(CNC(=O)c2ccc(C(=O)NCc3cccc(CN)c3)cc2)CC2c3cccc4[nH]cc(c34)CC21.O=C(O)C(F)(F)F.O=C(O)C(F)(F)F (stereo not shown)
Diastol. pressure [%]: 48.7
//
molecule: C[N+](C)(C)CC[N+]1(C)Cc2c(Cl)c(Cl)c(Cl)c(Cl)c2C1.[Cl-].[Cl-] [Ecolid, reference compound]
Diastol. pressure [%]: 54.7
//
molecule: CN1CC(CNC(=O)C2CCC(C(=O)NCc3cccc(CN)c3)CC2)CC2c3cccc4[nH]cc(c34)CC21.O=C(O)C(F)(F)F.O=C(O)C(F)(F)F (mixture of isomers)
Diastol. pressure [%]: 40.4

---

Test system: normotensive Wistar rats
assay name: Invasive blood pressure measurement in anesthetized rats, i.v. administration
Format: in vivo, rat
reported conditions: change shown as arrow, Wistar rats, 0.5 mg/kg i.v., Table 1.1
Description: Male Wistar rats with a body weight (BW) of 300-450 g were used as experimental animals. […] The arterial blood pressure is measured invasively using a PONEMAH hemodynamic analyzer (HSE, March, Germany). […] The values in the memory are then treated with an adapted algorithm in order to establish the blood pressure parameters to be calculated for heart rate, systolic, diastolic and mean blood pressure. […]
Counter-ions that a name gives are not always drawn.

compound: CN1C[C@H](C(N)=O)CC2c3cccc4[nH]cc(c34)C[C@H]21 (stereo partly drawn) [Dihydrolysergamide, reference compound]
Heart rate: →
//
compound: Nc1cc(N2CCCCC2)nc(N)[n+]1[O-] [Minoxidil, reference compound]
Heart rate: →
//
compound: O=C(O)C(F)(F)F [TFA (equimolar), trifluoroacetic acid, reference compound]
Heart rate: →
